Measured Endpoint: pKi
pKi (log units): -log10 of the concentration in mol/L.

Query block: Give measured pKi for CN1C(=O)CN=C(c2ccc(Cl)cc2)c2cc(Cl)ccc21 (Gamma-aminobutyric acid type B receptor subunit 1 (UniProt Q9Z0U4)).
Result block: 6.00

Query block: Give measured pKi for CC[C@@H](C)N(C)C(=O)c1cc2ccccc2c(-c2ccccc2Cl)n1 (Gamma-aminobutyric acid type B receptor subunit 1 (UniProt Q9Z0U4)).
Result block: 6.00
